Sourced from patent US20120220665A1

Some compounds, each annotated with its measured Kd.
Biological target: human serotonin transporter (hSERT) (Homo sapiens, UniProt P31645)
Construct: expressed in transfected cells; host or cells: HEK-293, stably transfected; membranes
Sequence (P31645 whole entry): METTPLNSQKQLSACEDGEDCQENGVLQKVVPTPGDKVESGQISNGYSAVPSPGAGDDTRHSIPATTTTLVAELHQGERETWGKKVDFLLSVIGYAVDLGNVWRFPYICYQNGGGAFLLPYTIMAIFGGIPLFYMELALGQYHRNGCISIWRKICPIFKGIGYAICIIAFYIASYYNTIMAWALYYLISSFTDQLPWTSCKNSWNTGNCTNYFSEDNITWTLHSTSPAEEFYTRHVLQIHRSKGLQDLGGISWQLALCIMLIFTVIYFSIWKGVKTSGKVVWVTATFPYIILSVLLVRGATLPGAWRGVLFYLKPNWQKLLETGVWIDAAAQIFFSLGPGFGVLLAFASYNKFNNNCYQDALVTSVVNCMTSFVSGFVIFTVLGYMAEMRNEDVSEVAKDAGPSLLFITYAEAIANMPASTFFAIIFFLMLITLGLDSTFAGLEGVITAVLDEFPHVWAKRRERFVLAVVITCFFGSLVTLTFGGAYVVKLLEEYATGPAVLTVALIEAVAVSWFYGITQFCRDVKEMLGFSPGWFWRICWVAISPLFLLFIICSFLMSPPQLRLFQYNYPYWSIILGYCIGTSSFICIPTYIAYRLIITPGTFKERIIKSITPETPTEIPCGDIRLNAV
Assay: Human transporter radioligand binding, hSERT ([3H]citalopram, HEK-293 membranes)
Conditions: HCl salts of test compounds; n ≥ 3, values marked b n = 1; read-out: Equilibrium Dissociation Constant (KD) for Transporter Binding (Geometric Mean; nM ± SEM) hSERT (S)
Procedure: HEK-293 cells expressing the recombinant hSERT or hDAT were incubated with Dulbecco's modified Eagles medium (MEM) supplemented with 0.1 mM nonessential amino acid solution for MEM, 5% v/v fetal bovine serum and […] penicillin/streptomycin solution. […] Radioligand binding assays for the indicated transporters were performed as follows. […] Radioactivity was measured with a Beckman liquid scintillation counter (LS 6000TA). Following the radioligand binding assays, the data were analyzed using the […]
Quick reminder: number only, in nM, skip the unit.

Solved cases (2 shown):
CN(C)C[C@H](c1ccc2ccccc2c1)[C@@H](Cl)c1ccccc1 [MCJ002-Cl-RS] ... 7.4
CNC[C@H](c1ccccc1)[C@@H](O)c1ccc2ccccc2c1 [MCJ001-NA-Ph—OH-RS/SR] ... 75

Q. Assign Kd to the following record: CNC[C@H](c1ccc2ccccc2c1)[C@@H](OCCCCCCCO[C@@H](c1ccccc1)[C@H](CNC)c1ccc2ccccc2c1)c1ccccc1 [MCJ001-Dimer7-SS]
A. 50

Q. Assign Kd to the following record: CN(C)C[C@H](c1ccc2ccccc2c1)[C@@H](F)c1ccccc1 [MCJ002-F-RS]
A. 7

Q. Assign Kd to the following record: CN(C)C[C@H](c1ccc2ccccc2c1)[C@H](Cl)c1ccccc1 [MCJ002-Cl-SS]
A. 8.3

###

tested on: hSERT (S), hNET (N), hDAT (D); assay: Comparison of binding potency across the three human transporters; conditions: highest KD / lowest KD among hSERT, hNET, hDAT
Some compounds, each annotated with its measured Potency Range.
Give the figure by itself; no unit, no explanation.

Solved cases (2 shown):
CNC[C@H](c1ccccc1)[C@@H](O)c1ccc2ccccc2c1 [MCJ001-NA-Ph—OH-RS/SR] ... 120
CN(C)C[C@H](c1ccc2ccccc2c1)[C@H](Cl)c1ccccc1 [MCJ002-Cl-SS] ... 32

Q. Fill in Potency Range for CN(C)C[C@H](c1ccc2ccccc2c1)[C@@H](Cl)c1ccccc1 [MCJ002-Cl-RS] tested with hSERT (S), hNET (N), hDAT (D).
A. 53

Q. Fill in Potency Range for CNC[C@H](c1ccc2ccccc2c1)[C@@H](OCCCCCCCO[C@@H](c1ccccc1)[C@H](CNC)c1ccc2ccccc2c1)c1ccccc1 [MCJ001-Dimer7-SS] tested with hSERT (S), hNET (N), hDAT (D).
A. 6

Q. Fill in Potency Range for CNCC(c1ccccc1)C(O)c1ccc(Br)cc1 (stereo not drawn) [MCJ001-Br—Ph—OH-RS/SR] tested with hSERT (S), hNET (N), hDAT (D).
A. 3

###

Tested on: hSERT (S), hNET (N), hDAT (D)
Assay: Comparison of binding potency across the three human transporters
Conditions: S = hSERT, N = hNET, D = hDAT; order by KD
Protocol: HEK-293 cells expressing the recombinant hSERT or hDAT were incubated with Dulbecco's modified Eagles medium (MEM) supplemented with 0.1 mM nonessential amino acid solution for MEM, 5% v/v fetal bovine serum and […] penicillin/streptomycin solution. […] Radioligand binding assays for the indicated transporters were performed as follows. […] Radioactivity was measured with a Beckman liquid scintillation counter (LS 6000TA). […]
measurement.label: Potency (rank order of transporter binding)

Solved cases (4 shown):
CNC[C@H](c1ccccc1)[C@@H](O)c1ccc(F)cc1 ... N > S > D
CN(C)C[C@H](c1ccc2ccccc2c1)[C@@H](F)c1ccccc1 ... S > N > D
CNC[C@H](c1ccccc1)[C@@H](O)c1ccc2ccccc2c1 ... S > N > D
CCN(CC)C(=O)C1(c2ccccc2)CC1CN (centres unmarked) [Milnacipran, reference compound] ... S > N > D

Q. Assign Potency (rank order of transporter binding) to the following record: CNC[C@H](c1ccc2ccccc2c1)[C@@H](OCCCCCCCO[C@@H](c1ccccc1)[C@H](CNC)c1ccc2ccccc2c1)c1ccccc1
A. N > S > D

Q. Assign Potency (rank order of transporter binding) to the following record: CNC[C@H](c1ccc2ccccc2c1)[C@@H](O)c1ccc(F)cc1
A. S > N > D

Q. Assign Potency (rank order of transporter binding) to the following record: CNC[C@H](c1ccc2ccccc2c1)[C@H](O)c1ccc(F)cc1
A. N > S > D
